Molecular target: T1, CD27 expressed on the cell surface of HT1080_CD27 cells (human, UniProt P26842 20-260)
T1 sequence (looked up): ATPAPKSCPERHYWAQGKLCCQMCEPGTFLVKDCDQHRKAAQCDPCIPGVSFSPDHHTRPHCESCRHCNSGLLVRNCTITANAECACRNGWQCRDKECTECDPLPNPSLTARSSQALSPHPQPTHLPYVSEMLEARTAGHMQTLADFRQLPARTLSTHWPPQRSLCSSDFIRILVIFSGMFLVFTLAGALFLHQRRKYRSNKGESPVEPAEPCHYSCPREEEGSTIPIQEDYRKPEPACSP
Test: cell-based or functional assay
ATTRIBUTE_MEASURED: EC 50 (IL-8 release, cross-linked) (mg/L)

binder="P018.S.04.A.A05 (antibody, V domains shown) VH: QSLEESGGRLVTPGTPLTLTCTASGFTISSYEMGWVRQAPGEGLEYIGWIASGGSTFYASWAKGRFTISRTSTTVDLTITDLRPSDTGTYFCARGYVEFKLWGPGTLVTVSS VL: DIVMTQTPASVSESVGGTVTIKCQASQSIGSYLSWYQQKPGQPPKVLIYRASTLESGVPSRFEGSGSGTQFTLTISDLESADAATYYCQGYHSTSGYVAFGGGTELVVK" unit_info=mg/L measured=0.408
binder="P018.S.04.A.F04 (antibody, V domains shown) VH: QSVEESGGRLVTPGTPLTLTCTVSGFSLSNYAMSWVRQAPGKGLEWIGIIYASGTTYYARWAKGRFTISRTSTTVDLKISSPTTEDTATYFCAREYDSYDYAYGSSIYAFDPWGPGTLVTVSS VL: AYDMTQTPSSVSAAVGGTVTIKCQASESIYSNLAWYQQKPGQRPKLLIYRASTLASGVSSRFKGSGSGTQFTLSISGVESADAATYYCQQGYSSSNVDNVFGGGTEVVVK" unit_info=mg/L measured=1.44
binder="P018.S.06.A.A02 (antibody, V domains shown) VH: QEQLVESGGGLVQPEGSLTLTCTSSGFSLNSNYYISWVRQAPGKGLEWIACIDAGSGSTWYASWVKGRFTISKTSSTTVTLQMTSLTAADTATYFCARDDIGTSYEYYFGLWGPGTLVTVSS VL: DVVLTQTPASVSEPVGGTVTIKCQASQTISSYLAWYQQKSGQPPKLLIYSASTLASGVSSRFKGSGSGTEYTLTISDLESADAATYYCQTYYGSDSYVFGGGTEVVVK" unit_info=mg/L measured=0.575
binder="P018.S.07.A.G02 (antibody, V domains shown) VH: QSVEESGGRLVTPGTPLTLTCTVSGFSLSSYDMSWVRQAPGKGLEWIGWITTDGGTDYASWAKGRFTVSKASTTVDLKITSPTTEDTATYFCARGYASFNLWGQGTLVTVSS VL: AQVLTQTPSSVSAAVGGTVTINCQSSQSVLSNSYLAWYQQKPGQPPKLLIYAASSLASGVPSRFKGSGSGTQFTLTISDLESDDAATYYCQGTDYSGGWYVAFGGGTEVVVK" unit_info=mg/L measured=0.43
binder="P018.S.01.A.B04 (antibody, V domains shown) VH: QEQLEESGGRLVTPGGTLTLTCTASGFSLSSYDMSWVRQAPGKGLEWIGYIWSDGNTDYASWAAGRFTASRASTTVDLKMTSLTTEDTATYFCARGYTGFFLWGPGTLVTVSS VL: DVVMTQTPSSVSAAVGGTVTIKCQASQSIGSSYLSWYQQKPGQPPKLLIYKTSTLASGVPSRFKGSGSGTEFTLTISDLESDDAATYYCQCTYYGGSWRVAFGGGTEVVVK" unit_info=mg/L measured=0.856
binder="P018.S.03.A.A02 (antibody, V domains shown) VH: QSVEESGGRLVTPGTPLTLTCTVSGFSLSSYDMTWVRQAPGEGLEWIGYINTDTTTYYASWAKGRFTISRTSTTVDLEITSPTTEDTATYFCARGNDPIYIDLWGQGTLVTVSS VL: AAVLTQTPSPVSAAVGGTVSISCQSSKSVINNNWLGWYQQKPGQPPKLLISYASTLASGVPSRFSGSGSGTQFTLTISDVQSDDAATYYCAGAYSPDSENAFGGGTEVVLK" unit_info=mg/L measured=0.835
